- conditionDetails: in DMAc, 293.15 K

{"columns": ["testSmiles", "solubility (mole fraction)"],
 "data": [
  ["CC(C)Oc1ccc2c(=O)c(-c3ccccc3)coc2c1", 0.062]
]}

----------
- conditionDetails: in acetone, 318.15 K

{"columns": ["testSmiles", "solubility (mole fraction)"],
 "data": [
  ["CC(C)Oc1ccc2c(=O)c(-c3ccccc3)coc2c1", 0.0441]
]}

----------
- conditionDetails: in ethanol, 278.15 K
valueKind: solubility (mole fraction)

{"columns": ["testSmiles", "quantitativeReadout"],
 "data": [
  ["CC(C)Oc1ccc2c(=O)c(-c3ccccc3)coc2c1", 0.000992]
]}

The measurements presented in this section are drawn from BigSolDB 2.1.
